experiment: protease stability score; higher = more stable; yeast display proteolysis, trypsin and chymotrypsin;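 also: relative to predicted unfolded state with 0 unfolded-like and 1 meaning tenfold more protease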
protease stability score: recorded values
Endpoint label: protease stability score

[[record]]
chain = "SEDEKFLQIALHLMMHWINTGDEDFLREMADPHVRLHDGDKEHHGWKVIEHLFHYYGVDHITVKRYTIIGDKVKTDGELRVGDKRFRILYETVKIDGRWHVHKIEIR"
data_value = 1.43

[[record]]
chain = "SDEEIAAKYMEDELQKSLKTGDEQKFRHLADPNVRSDINGVELIGWELIIKYWREIRSKVEDVRLKRVDVQGDKIHLHGLVDVEINVNGVRTREHLESHFVIVKIDGRWYVHSIEIR"
data_value = 0.659

[[record]]
chain = "DEEEKLFHDFASHFVRNFLTGNWDMIKRNADPTVQAHIGDKEIHGWDRIVDHLEERLRKIKGMRHHPRRLVFIGEKTYLDTELHFNGVHVETILIVIVVNGRLKSVEFHIE"
data_value = 0.695

[[record]]
chain = "SEEDHRAKHIFHLFLHWFLTGDWEIFEHYADPRMRTLVNGKNFHGWEETVKFLDHIFKELRVHHIHVDHLEVQGDKYHFEVRVDREYNGRREITIMYIHFLIFNGKVKSILIIIH"
data_value = 1.08

[[record]]
chain = "TEEQHEARHLFQLWVYSVITGNEHILHNLVDPHYLLDVGDYHVHGREDTLKVLLEARVEDFRVRDVRVYDGRLESDIEFTGHFNGRKINNKVEMTQEKIDGRWYLKRTKVT"
data_value = 1.77

[[record]]
chain = "DDSHKKLKHAFELLLHALRTGDEDLLKELIDPEVRILFNGKIFHGREWWEHLLRHIRFKDIHIKNIDIQGDKLRVDSRLHIIIDGRHVDFEAEFYIVKVDGRWFTEEIVIK"
data_value = 2.21

[[record]]
chain = "SEEEELSHTMWRLWVHAVRTGDFRMLEHLADPHVRDVRNINGVTTRLVGREEWRRIVEEEIDKYPNMRVEFEDVRDVGNYVHAHTKSHYDGKTVDTRVELLVVDGRISDFKLHIE"
data_value = 1.08

[[record]]
chain = "DEQEDRDMKKMYKNLQEGDDQRVADMADPNARWRVGDKTYHGKDSIRHWAKEVHDRMHFRIQSITVQNENGKVKVEIKWVTDENGKPVDQTVQVKAELHNGHIVDIDITTQS"
data_value = 0.098

[[record]]
chain = "SEEEEEAQRFFEEWSKSWVTGDEDLTLHLLDPNVKVDIGDKVYHGRESYLELLHLILREARVHSFHMHRLEVIGEKANIDSRVDHEVGDKRDTVHMNMIVVKINGRWILKSIQIK"
data_value = 2.58

[[record]]
chain = "DEEEEEAHTITEILVHDWRTGNEEHLVKLIDPNARINYNGVNLHGMKAVSIILHHIRYKDVSLHEVRVFDGQVEIILKIHVNINGQDETHHTHIVLSKVNGRWLIDTIKWE"
data_value = 1.28

[[record]]
chain = "DDSEEDALRILELLSDSMETGNWRLVSELLDPHVRLEVGDKTWVGMEEMKRLANQIRIHVHRVKFHHIDNFNGRVRVDGHIHGEIIVGDKIYRFRTRIEIDAVKINGQWVIEEMRIG"
data_value = 1.61


---

test: protease stability score; higher = more stable; yeast display proteolysis, trypsin and chymotrypsin;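 also: relative to predicted unfolded state with 0 unfolded-like and 1 meaning tenfold more protease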
Endpoint label: protease stability score

[[record]]
chain = "SEKEHIMRRASQLIRDYLITGDWRSLEKLIDPNAQFEVNGRHIHGREEVSRIYLQHLNELGVERIDYIERDSDMQGEKVHTYGDLHVNGVTFHVIIFVLKIDGRWTIKKEIWSDK"
data_value = 1.15

[[record]]
chain = "DEEKNLIIELVHLFLVAFWTGNEELLRHLADPDVRFEIDGREHHGREELEKHLEHWWMKIEHIEEKEIRVIDGRVHIDGHVRGTLIINGRENRISYDVEIHAEVIDGRFKYVKVKQK"
data_value = 2.48

[[record]]
chain = "DEEEERFEEVWRRLARALETGDEETVRHLIDPNVLIIIGDKTIHGWESLSTYLKEIRLTISDMRVRSRSEVNGKLEFDTHTHRVVFINGVELHVEERIHITMLKIDGRWHIHSIEFR"
data_value = 1.45

[[record]]
chain = "SEEEKKDHRQWERTFKAFLTGDEDTVHNLADPHVKTEVGDKEYHGRENFSKLISDLGVDHLNLKEIDTVNGRIHLLSEVRFNGQITKFIIIILKVNGQWHVESMEFH"
data_value = 0.441

[[record]]
chain = "SHDEEQVDRFLKLWSHAVMTGDWKFMYELLDPHTRLVINGKNVHGREEISKFFHDHVSRIKNLKIEVHLNEVRIFDGRAHLDIEVRIHIGDKNHTIHVEIVVEKVDGRWHVHSIHEK"
data_value = 1.36

[[record]]
chain = "SEKEKILEHFSELWYRLFRTGDEDTLHRMFDPDYRLIYGDKESHGRRLVWIMIAELRIHDWRLRRYHVQGDKAHFDVEVTGEFNGRREHNREEIIITVIDGRATEVEIRID"
data_value = 0.54

[[record]]
chain = "DDETEYAREASEMWVKLLITGDEEIREEYIDPHAKMDQGEYEYHGREQVSRFSKKLIDTMGVKHFDIKSIEIQGDKVILFMHEHFENRRVDLIFYSRKFDGRWHYRRMEVIHR"
data_value = 0.543

[[record]]
chain = "DEEERLSREILELNIEVLETGNEHVVRELLDPHVKMEVGDKEYHGREEFVTLFHHFGIDHFHIHEIRFIGNKAEMHVSSEINGRRFSILIIAHKVNGKWIMHTMHVE"
data_value = -0.037

[[record]]
chain = "SDEDHSSHLAHRWLLEILETGDEERLLRLADPNYRLDVDGRRFIGREDLLRWMKHVVERADHIELRDHHVDNQGDKVSSDVIVNERFDGKTERYRTHIVINKFDGKWVFHRFKIK"
data_value = 0.928

[[record]]
chain = "DELTEDLKHAMTIFLHMLITGDEHWIHDLLDPNTRLEFEGREFVGREDAREEWRKISEEIRVHHVEMKDIHVFDGVIIVDGRMDGEVNGRRTHLNVFFVFHKVNGKWLMRQHSLR"
data_value = 1.42

[[record]]
chain = "SEVEESIEHAREIVTEVIKTGDEHHLNRLADPNTRVVFDGKDLHGRERLEEVLREMGVNHIEIKDMKYDSQGNKVHIDIDGRVNVGEKSHNTHLHWIVEKVNGRWLLSSIIIIIR"
data_value = 0.886


---

Below: a set of entries, each annotated with reported protease stability score.
test: protease stability score; higher = more stable; yeast display proteolysis, trypsin and chymotrypsin;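 also: relative to predicted unfolded state with 0 unfolded-like and 1 meaning tenfold more protease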
Endpoint label: protease stability score

[[record]]
chain = "SDEKKRLDDLAMTFLTLWMTGDWDHFARQADPHVRSDINGKELHGREIFVNFLREEMTRLGVDHFELHSVTVIDGKVHFDGEVDVNGVRHKTILWSVIFNGRIKSQEEEIR"
data_value = 1.15

[[record]]
chain = "DSDQSKREMDKFLEMVSTGDPDEVNRLLDKDAHAHVGDQTYHGREEISHMWKELREKIDHLEVHDYKVNGNKLEVDMHATINGQNVVFTVVAVLRNGHFESVEVQYRSEEEEEKVKR"
data_value = 0.776

[[record]]
chain = "DEHHRWLEQALHLWIHTILTGDEKVLHELFDPDVRLNVDGQDFHGRELMIKWFHDILRKFKNIRIKHIHIEDRRYYDGRLEIHTSVNVEFNGRPHEEKYRIIAFKIDGRWRLKEEEFH"
data_value = 1.8

[[record]]
chain = "DDHEEEVLRLLHTVLRIMWTGDEDELHRLADPNMKMWINGRKFHGRETAIETLKRMVNEIRIHEIHVKDFDVIGEYAHVDTRVRGTINGKETILNERIIVLVIDGRIKSIRIDLK"
data_value = 2.13

[[record]]
chain = "SHEDHLVDLAFEVWRRDLETGDEDLLKKLVDPNVRIIQGDKMYHGMDDYVERLRRIWEELGVDYIQVHLEHSRQVNGVAELDVRLKLRIGDKRREYRLHLHIEKVNGKWQIKQINIQ"
data_value = 0.277


---

Recorded protease stability score for the following sequences
assay: protease stability score; higher = more stable; yeast display proteolysis, trypsin and chymotrypsin;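 also: relative to predicted unfolded state with 0 unfolded-like and 1 meaning tenfold more protease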
Endpoint label: protease stability score

[[record]]
chain = "DEIDEISKQMVRDFVHSWRTGDWKVLRELADPHALIIFNGREFHGWEHILRVFLELIRRYKNARVDIEEVIVQGDKIHIHLRIDQGDKSHTVNIHIDIIDGKLKRLEIDVT"
endpoint_label = "protease stability score"
data_value = 2.27

[[record]]
chain = "DEEEDHERHLVERTIHSLETGDWHETHELLDPHVRIQIVQGDKSLDLHGREAAVKFFLDWLRRVPNMRLEFKRIEDYDGVSHIDGVLRIGDKEMRFEIEIHVFNGVVKRMHIRMH"
endpoint_label = "protease stability score"
data_value = 1.38

[[record]]
chain = "DEEEEQAHTMLEIFLHNLVTGNEETINTLMDPHARTDIDGKIFHGRDWLEHFLRRFPHVRLHLKHIEWRVINGVAHLHLEMHVNVDGRHFDVRFHIHNEKINGRWFSHSFKYSIE"
endpoint_label = "protease stability score"
data_value = 1.44

[[record]]
chain = "DEIEHAVRLAYERWLHEFETGDEEETLRNADPDTMIVINGRHLHGREHFTRWLKRIDHQHMHHEDFTHIDHQGDKLHLNVHVSIEVEINGVRYVLEHENEIVQTKIDGQWILTYIIIR"
endpoint_label = "protease stability score"
data_value = 1.25

[[record]]
chain = "TEEEDEASRLMEEFLKHHETGDWEELKKMADPDARYHETVNGKRIERHGRDDLITWLRKFLEKFKNMRLHIDEMRLIGNKNILHGTLRIGDKDIESRIILIIIDGRIKEIEIIIK"
endpoint_label = "protease stability score"
data_value = 1

[[record]]
chain = "SDHRRLLEELLKIIIKAMMTGDESTLERMFDPNVRINIDGVDDHGWESFDRMFHELRIDHARVEYIDVVNGRARVHTNFEVHFDGRRIHWETEIVVVIVNGRNREVSIIRH"
endpoint_label = "protease stability score"
data_value = 0.739

